- targetEntity: CDK5-p25 kinase (Homo sapiens)
- Construct: purchased Invitrogen PV4677
- assaySummary: CDK5-p25 kinase enzymatic assay
- Type: biochemical
- assayContext: 0.3 nM CDK5-p25, 1.5 uM peptide, 5 uM ATP; X marks bin 500 nM-3 μM; read-out: IC50 potency, 500 nM-3 μM
Quick list: IC50 per entry.

>>> df
                                   compound     reported
0  O=c1cc(Cc2ccc3ccccc3c2)[nH]c2n[nH]c([C@H]3C[C@@H](O)C3)c12 [Example 11]  0.5 to 3 µM

Endpoint output: IC50 of O=c1cc(Cc2ccc3ccccc3c2)[nH]c2n[nH]c(C3CC(F)(F)C3)c12 [Example 9] . Value?
0.5 to 3 µM

* * *

- targetEntity: CDK5-p25 kinase (Homo sapiens, UniProt Q00535)
- Construct: purchased Invitrogen PV4677
- Sequence (Q00535 whole entry): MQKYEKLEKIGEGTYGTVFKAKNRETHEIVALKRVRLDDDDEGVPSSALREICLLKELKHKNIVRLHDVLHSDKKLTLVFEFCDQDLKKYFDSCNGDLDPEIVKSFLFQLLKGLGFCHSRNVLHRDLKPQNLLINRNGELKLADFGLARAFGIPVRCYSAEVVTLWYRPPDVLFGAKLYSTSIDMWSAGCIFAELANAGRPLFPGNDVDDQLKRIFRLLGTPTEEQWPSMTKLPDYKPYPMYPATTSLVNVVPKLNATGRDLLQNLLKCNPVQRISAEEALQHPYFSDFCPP
- Sequence (Q15078 99-307 partner limits assumed): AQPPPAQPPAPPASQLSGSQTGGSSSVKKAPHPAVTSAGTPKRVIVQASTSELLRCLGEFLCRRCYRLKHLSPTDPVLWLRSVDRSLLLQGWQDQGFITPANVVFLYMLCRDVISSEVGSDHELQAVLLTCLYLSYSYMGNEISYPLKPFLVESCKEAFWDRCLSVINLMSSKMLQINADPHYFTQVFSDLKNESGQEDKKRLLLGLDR
- assaySummary: CDK5-p25 kinase enzymatic assay
- Format: biochemical
- assayContext: 0.3 nM CDK5-p25, 1.5 uM peptide, 5 uM ATP; X marks bin 50 nM-99 nM; read-out: IC50 potency, 50 nM-99 nM
assayReadout: IC50

>>> df
                                   molecule     reported
0  CC(C)(C)c1ccc(Cc2cc(=O)c3c(C4CCC4)[nH]nc3[nH]2)cc1 [Example 4]  50 to 99 nM

Next up:
Endpoint output: IC50 of O=c1cc(Cc2ccc(-c3ccccc3)cc2)[nH]c2n[nH]c(C3CCC3)c12 [Example 3] . Value?
50 to 99 nM
